- assay-remarks: Mouse liver microsome stability / intrinsic clearance
- Type: in vitro ADME
- condition-label: mouse, liver microsomes
Assignment: determine reported CLint scaled for the given compounds.
Write the numeric value and follow it with the unit.

Asked: Which measured CLint scaled value corresponds to Fc1cc(COC2CCN(Cc3ncc4ccccn34)CC2)ccc1Cl ?
Given back: 917 mL/min/kg

Asked: Lookup COc1ccc(CN2CCC[C@H](OCc3ccc(F)c(F)c3)C2)cc1F
Given back: 1260 mL/min/kg

Asked: Lookup Cn1ncc2cc(CN3CCC(OCc4cccc(C(F)(F)F)c4)CC3)ccc21
Given back: 85.2 mL/min/kg

###

- assay-remarks: Human liver microsome stability / intrinsic clearance
- Type: in vitro ADME
- condition-label: human, liver microsomes
Assignment: determine reported CLint scaled for the given molecules.

Asked: Which measured CLint scaled value corresponds to Fc1ccc(COC2CCN(Cc3ccc4[nH]cnc4c3)CC2)cc1F ?
Given back: < 20 mL/min/kg

Asked: Lookup Fc1cccc(COC2CCN(Cc3cn4ccccc4n3)CC2)c1
Given back: < 23.1 mL/min/kg

Asked: Lookup Fc1ccc(COC2CCN(Cc3cn4ccccc4n3)CC2)cc1F
Given back: < 20 mL/min/kg
